system_tested: T1, Swi6 (full-length, wild type) (S. pombe, UniProt P40381 1-328)
T1 sequence (looked up): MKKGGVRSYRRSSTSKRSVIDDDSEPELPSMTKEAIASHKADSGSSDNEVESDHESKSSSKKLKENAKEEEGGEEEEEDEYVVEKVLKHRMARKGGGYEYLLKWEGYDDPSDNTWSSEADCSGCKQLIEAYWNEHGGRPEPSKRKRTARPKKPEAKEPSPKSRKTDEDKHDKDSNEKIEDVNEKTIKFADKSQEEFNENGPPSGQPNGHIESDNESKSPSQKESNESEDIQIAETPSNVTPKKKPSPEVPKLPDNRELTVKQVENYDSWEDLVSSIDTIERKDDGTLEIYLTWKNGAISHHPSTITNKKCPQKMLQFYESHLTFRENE
assay_protocol: fluorescence polarisation
measured_endpoint: pKd
Give bare numbers, as −log10 of the molar value.

## Task Form field: reported pKd of EKAKTSNVCVCIPCKSAEQ [Sgo1 peptide]
## Result 5.18
